target: full-length (FL) NS5 protein (wt PBM) of West Nile virus (West Nile virus); assay: split reporter (BiFC, NanoBiT); N2H split-NanoLuc in HEK-293T cells; full-length NS5 with 257 single PDZ domains; read-out NLR with NS5 minus NLR with NS5ΔPBM, three experiments; hits > 0.25
value type: NLR(NS5) - NLR(NS5ΔPBM)
// return just the number, without any unit appended

Membrane-associated guanylate kinase, WW and PDZ domain-containing protein 2, PDZ domain 1 (N2H construct) (domain or fragment) ESVIGRNPEGQLGFELKGGAENGQFPYLGEVKPGKVAYESGSKLVSEELLLEVNETPVAGLTIRDVLAVIKHCKDPLRLKCVKQG	0.26

Alright, here's another binder for you.
q: Return value of NLR(NS5) - NLR(NS5ΔPBM) for input Protein piccolo, PDZ domain (N2H construct) (domain or fragment) RIKITRDSKDHTVSGNGLGIRIVGGKEIPGHSGEIGAYIAKILPGGSAEQTGKLMEGMQVLEWNGIPLTSKTYEEVQSIISQQSGEAEICVRLDL , no commentary.
a: 0.57
